Data credit: patent US20140364431A1

biological target: c-Met (His-tagged recombinant human Met (Amino acids 974-ends)) (Homo sapiens, UniProt P08581); construct: His-tagged recombinant human Met (Amino acids 974-ends); His; host or cells: baculovirus expression; assay: c-Met kinase assay (ELISA); type: biochemical; settings: 50 pM c-Met, 5 μM ATP, 20 min
Sequence (P08581 974-1390 limits assumed): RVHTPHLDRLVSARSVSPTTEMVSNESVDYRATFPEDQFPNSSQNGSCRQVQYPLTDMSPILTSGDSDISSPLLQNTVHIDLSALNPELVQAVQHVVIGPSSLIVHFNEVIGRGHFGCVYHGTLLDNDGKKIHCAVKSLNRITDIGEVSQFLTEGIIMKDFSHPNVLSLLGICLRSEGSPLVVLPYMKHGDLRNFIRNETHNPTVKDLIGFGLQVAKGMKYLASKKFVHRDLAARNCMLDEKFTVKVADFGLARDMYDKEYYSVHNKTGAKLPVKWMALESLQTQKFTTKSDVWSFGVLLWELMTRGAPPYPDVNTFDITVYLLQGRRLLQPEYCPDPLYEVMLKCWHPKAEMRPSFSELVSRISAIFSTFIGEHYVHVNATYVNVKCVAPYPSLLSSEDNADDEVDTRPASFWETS
Counter-ions that a name gives are not always drawn.
# if measured IC50 < 1 µM: fulfilled  # else: not fulfilled

Solved cases (8 shown):
compound	class.assignment
COc1cc2c(Oc3ccc(NC(=O)c4nn(-c5ccc(Br)cc5F)c5ccccc5c4=O)cc3F)cnnc2cc1OCCCN1CCOCC1	not fulfilled
COc1cc2c(Oc3ccc(NC(=O)c4cn(-c5ccccc5Cl)c5ccccc5c4=O)cc3F)ccnc2cc1OCCCN1CCCCC1	fulfilled
COc1cc2c(Oc3ccc(NC(=O)c4nn(-c5ccc(C)cc5C)c5ccccc5c4=O)cc3F)ccnc2cc1OCCCN1CCC(C)CC1	not fulfilled
COc1cc2c(Oc3ccc(NC(=O)c4nn(-c5ccc(C)cc5C)c5ccccc5c4=O)cc3F)ccnc2cc1OCCCN1CCN(C)CC1	fulfilled
COc1cc2c(Oc3ccc(NC(=O)c4nn(-c5ccc(Cl)cc5)c5ccccc5c4=O)cc3F)cnnc2cc1OCCCN1CCOCC1	fulfilled
COc1cc2c(Oc3ccc(NC(=O)c4nn(-c5ccc(Br)cc5)c5ccccc5c4=O)cc3F)cnnc2cc1OCCCN1CCCCC1	fulfilled
COc1cc2c(Oc3ccc(NC(=O)c4cn(-c5ccc(F)c(F)c5)c5ccccc5c4=O)cc3F)ccnc2cc1OCCCN1CCCCC1	fulfilled
COc1cc2c(Oc3ccc(NC(=O)c4nn(-c5cc(C(F)(F)F)ccc5Cl)c5ccccc5c4=O)cc3F)ccnc2cc1OCCCN1CCC(C)CC1	not fulfilled

Qu. Bench note: check whether COc1cc2c(Oc3ccc(NC(=O)c4cn(-c5ccc(F)cc5)c5ccccc5c4=O)cc3F)ccnc2cc1OCCCN1CCN(C)CC1 [Example 46, dihydrochloride] shows IC50 below 1 µM
Ans. not fulfilled

Qu. I wonder whether COc1cc2c(Oc3ccc(NC(=O)c4nn(-c5ccc(Cl)cc5Cl)c5ccccc5c4=O)cc3F)ccnc2cc1OCCCN1CCC(C)CC1 has IC50 below 1 µM. Can you tell?
Ans. not fulfilled

Qu. Report whether reported IC50 is lower than 1 µM (strictly) for COc1cc2c(Oc3ccc(NC(=O)c4nn(-c5ccc(F)cc5)c5ccccc5c4=O)cc3F)ccnc2cc1OCCCN1CCOCC1
Ans. fulfilled

Qu. Take the compound COc1cc2c(Oc3ccc(NC(=O)c4nn(-c5ccc(Cl)cc5)c5ccccc5c4=O)cc3F)cnnc2cc1OCCCN1CCC(C)CC1 and say whether its IC50 is less than 1 µM.
Ans. not fulfilled

Qu. # TODO verify IC50 < 1 µM strictly for this compound: COc1cc2c(Oc3ccc(NC(=O)c4nn(-c5ccccc5F)c5ccccc5c4=O)cc3F)cnnc2cc1OCCCN1CCCC1
Ans. not fulfilled
